- assayed-system: SHV-12 (Klebsiella pneumoniae, UniProt P0AD64, E235K/G234S/L31Q)
- Sequence (P0AD64 22-286 L31Q/G234S/E235K): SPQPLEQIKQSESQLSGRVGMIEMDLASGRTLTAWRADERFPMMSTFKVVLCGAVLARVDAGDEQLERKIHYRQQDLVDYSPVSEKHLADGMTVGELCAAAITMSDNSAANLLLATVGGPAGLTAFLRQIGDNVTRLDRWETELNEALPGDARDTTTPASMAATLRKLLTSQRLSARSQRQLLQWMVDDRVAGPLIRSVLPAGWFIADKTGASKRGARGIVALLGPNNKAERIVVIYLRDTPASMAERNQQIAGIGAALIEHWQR
- procedure-text: β-lactamase inhibition, Ki by enzyme kinetics (nitrocefin)
- run-parameters: SHV-12, class A
readout-type: Ki (nM)
# number only, unit nM dropped from output

compound	readout-type	assay-value
O=C1CC(CBr)N1OS(=O)(=O)c1ccc2ccccc2c1 (stereo not shown) [Compound 61c]	Ki	190
O=C1CC(CBr)N1OS(=O)(=O)/C=C/c1ccccc1 (stereo not shown) [Compound 61a]	Ki	779

# next compound below
[in] Given O=C1CC(CBr)N1OS(=O)(=O)c1cccc2ccccc12 (stereo not shown) [Compound 61b] , state its recorded Ki.
[out] 198

// provenance: patent US9862680B2
